A collection of compounds and their measured growth
Tested on: ACHN renal
Assay: NCI-60 one-dose screen, 48 h (100 = growth as untreated, 0 = no growth, -100 = all killed)
Settings: 10 µM unless noted
Compounds without any hit were thinned out: in the full panel of roughly 83,000, 20% have a hit.
endpoint: growth (%)

> print(dat)
                                    compound  value.reported
 1  O=S(=O)(Nc1ccc(Cl)cc1Cl)c1ccc(-c2cnc(C3CC3)o2)cc1            53.6
 2  COCCCN=C(N)c1ccc(NC(=O)c2ccc(C(=O)Nc3ccc(C(N)=NCCCOC)cc3)cc2)cc1             113
 3  CC(=O)Oc1cc2cnc3c4cc(OC(C)=O)c(OC(C)=O)cc4ccc3c2cc1OC(C)=O            15.3
 4  C=CCSc1nnc(-c2ccc(C(C)(C)C)cc2)n1-c1cccc(C(F)(F)F)c1            36.3
 5            CNc1cc2nc3cc(NC)c(C)cc3cc2cc1C            20.6
 6  CCC(c1ccc(O)cc1)C(CC)c1ccc(O)c(F)c1 (stereo unspecified)            90.5
 7  Nc1c(C(=O)Nc2ccccc2)sc2nc3c(cc12)CN(CCc1ccccc1)CC3            95.3
 8  COc1ccc(C(=O)c2sc3nc(-c4ccccc4OC)ccc3c2N)cc1OC            66.9
 9  CCOC(=O)C12CCCC1=CC(=O)CC2 (stereo unspecified)             106
10  CCC(c1ccccc1)C(CC)c1ccc(O)c(O)c1 (stereo unspecified)            95.9
11               Oc1c(Cl)cc(Cl)cc1CNc1nccnn1            99.8

###

Reported growth values for a set of compounds
Test system: HS 578T breast
Test: NCI-60 one-dose screen, 48 h (100 = growth as untreated, 0 = no growth, -100 = all killed)
Details: 10 µM unless noted
Protocol: Growth inhibition of the HS 578T human tumor cell line is measured as a screen for anti-cancer activity. Cells are grown in 96 well plates and exposed to the test compound for 48 hours. Compounds are tested at a single concentration, which is 10^-5 M for most compounds. The reported endpoint is percent growth (GI% or GIPRCNT), where numbers from 0 - 100% represent growth inhibition, and numbers from -100% - 0 represent cell death. For example, a value of 40 represents 60% growth inhibition. […]
Compounds without any hit were thinned out: in the full panel of roughly 83,000, 20% have a hit. Calls of active or inactive are those of the source. How the source made its calls: active means growth percent below 10; inactive means the rest.
endpoint: growth

> print(dat)
                            compound.smiles  endpoint    value.reported
1  COc1ccc(-c2cn3c(-c4ccc(OC)cc4)cnc3c(Oc3ccc4c(C)cc(=O)oc4c3)n2)cc1    growth  57.6% (inactive)
2                              Cc1ccccc1CCO    growth   100% (inactive)
3  CCCCOc1ccc(NC(=O)n2nc(NC(C)=O)c3cc(NC(C)=O)ccc32)cc1    growth   103% (inactive)
4  COc1cc(-c2nc3ccccc3s2)ccc1NC(=O)COc1ccc(Cl)cc1    growth  44.7% (inactive)
5  C=C(CN1CCN(c2cccc(C(F)(F)F)n2)CC1)c1ccc(C(=O)Nc2ccccc2N)cc1    growth  41.1% (inactive)

Values were extracted from PubChem BioAssay (NCI).
